molecular target: A*2601 (Homo sapiens, UniProt P04439, A114D/A173T/A270S/D101N/D185E/E277Q/E87N/F33Y/G231S/I121R/I218V/K168Q/L180W/L300P/L318F/P208A/P217A/Q86R/Q94H/R138Q/S129P/T187R/T323A/T345S/V100A/V358M); experiment: biochemical; type: binding
pIC50: −log10 of the molar value. No end group written: not given here.
We use 7 as the dividing line for pIC50: on or above the line is MET, below is NOT MET.

Prompt: Is it the case that ITSKASEY [Peptide 9012.0108] has pIC50 reaching or exceeding 7?
Response: NOT MET

Prompt: Is it the case that GTSSFSTTINY [Peptide 9012.0190] has pIC50 reaching or exceeding 7?
Response: NOT MET

Prompt: Is it the case that FTTCLGLSY [Peptide 9012.0136] has pIC50 reaching or exceeding 7?
Response: MET

Prompt: Is it the case that GTSSLPTTMNY [Peptide 9012.0194] has pIC50 reaching or exceeding 7?
Response: NOT MET

Prompt: Is it the case that NTDRHSVVVPY [Peptide 9012.0198] has pIC50 reaching or exceeding 7?
Response: NOT MET

Prompt: Is it the case that ATDLGLSY [Peptide 9012.0112] has pIC50 reaching or exceeding 7?
Response: NOT MET

Prompt: Is it the case that CTDIHYNY [Peptide 9012.0114] has pIC50 reaching or exceeding 7?
Response: NOT MET

Prompt: Is it the case that ATSPAFDNLYY [Peptide 9012.0188] has pIC50 reaching or exceeding 7?
Response: MET

Prompt: Is it the case that GTDVRAMAIY [Peptide 9012.0156] has pIC50 reaching or exceeding 7?
Response: NOT MET

Prompt: Is it the case that PTDDPSPLQRY [Peptide 9012.0186] has pIC50 reaching or exceeding 7?
Response: NOT MET

Prompt: Is it the case that YVMAGVGSPY [Peptide 9012.0152] has pIC50 reaching or exceeding 7?
Response: MET

Prompt: Is it the case that SSDPSQKTY [Peptide 9012.0139] has pIC50 reaching or exceeding 7?
Response: NOT MET

Prompt: Is it the case that ETVPISHLY [Peptide 9012.0132] has pIC50 reaching or exceeding 7?
Response: MET

###

Assignment: determine reported IC50 for the given sequences.
biological target: DRB1*0405 (Homo sapiens, UniProt P01903+P01911, A100R/A169T/D86S/F76Y/I96L/K127E/L162R/M171V/N62H/P40V/Q125Y/R42H/S133A/S149N/S66Y/V115G/V209L/W38E); experiment: biochemical; format: binding
No end group written: not given here.
Dear colleague, please return just the value in nM, with no unit written.

Prompt: Look up and report measured IC50 for this entry: RHLDKKQRFHNIRGR [Peptide 1543.26]
Response: 1550

Prompt: Look up and report measured IC50 for this entry: TYISTSQRDDFLNTV [Peptide 1601.27]
Response: 5200

Prompt: Look up and report measured IC50 for this entry: KVAMLDDATHTCWTY [Peptide 90.0105]
Response: 279

Prompt: Look up and report measured IC50 for this entry: AYGISFMELVRPFKS [Peptide 89.0060]
Response: 4260

###

biological target: A*6802 (Homo sapiens, UniProt P04439, A269V/D140Y/D185E/E176V/E277Q/E87N/F33Y/G231S/I121R/I166T/I218V/L180W/L300P/L318F/N151K/P208A/P217A/Q86R/R138H/R169H/S129P/T345S/V36M); test: biochemical; format: binding
No end group written: not given here.
Assignment: determine reported IC50 for the given sequences.
Dear colleague, please return just the value in µM, with no unit written.

Prompt: Look up and report measured IC50 for this entry: WLRLLLTASL [Peptide 9013.0116]
Response: 19.8

Prompt: Look up and report measured IC50 for this entry: YLHNRLVVFT [Peptide 86.0075]
Response: 1.6

Prompt: Look up and report measured IC50 for this entry: ALAEAMSQA [Peptide 1539.04]
Response: 3.02

Prompt: Look up and report measured IC50 for this entry: IQGAVISFV [Peptide 1578.13]
Response: 4.88

###

target: A*3301 (Homo sapiens, UniProt P04439, A270S/D185E/E176V/E277Q/E87N/F33T/G231S/H175R/I121M/I218V/I322F/K168Q/K210R/L300P/L318F/M331R/P217A/Q86R/Q94H/R138Q/T323A/T345S/T97I/V358M/Y195H); test: biochemical; assay type: binding
No end group written: not given here.
Assignment: determine reported pIC50 for the given sequences.
Reminder that pIC50 is minus the log10 of a molar concentration.

Prompt: Look up and report measured pIC50 for this entry: SSCMGGMNR [Peptide 1556.59]
Response: 7.41

Prompt: Look up and report measured pIC50 for this entry: HLYGYSWYK [Peptide 76.0153]
Response: 7.21

###

target: A*0206 (Homo sapiens, UniProt P04439, D140Y/D185E/D98H/E176V/E277Q/F33Y/G131W/G231S/I119V/I121R/I166T/I218V/L300P/L318F/N151K/N90K/P208A/P217A/Q86G/Q94H/R138H/R169H/T345S); experiment: biochemical; type: binding
No end group written: not given here.
attributeMeasured: pIC50
Reminder that pIC50 is minus the log10 of a molar concentration.

Prompt: Look up and report measured pIC50 for this entry: QLHTQELFI [Peptide 9013.0079]
Response: 4.93

Prompt: Look up and report measured pIC50 for this entry: RILQRLLFV [Peptide 1525.27]
Response: 7.14

Prompt: Look up and report measured pIC50 for this entry: FLDAFKKFL [Peptide 1578.31]
Response: 6.38

Prompt: Look up and report measured pIC50 for this entry: QQIEFVSFL [Peptide 1578.16]
Response: 7.31

###

Assignment: determine reported A2.1 relative binding (ratio of binding of test peptide relative to standard peptide) for the given sequences.
molecular target: A2.1 HLA molecules (Homo sapiens, UniProt P04439, D140Y/D185E/D98H/E176V/E277Q/G131W/G231S/I119V/I121R/I166T/I218V/L300P/L318F/N151K/N90K/P208A/P217A/Q86G/Q94H/R138H/R169H/T345S); type: binding
Lab note: record just the number, no unit beside it.

Prompt: Look up and report measured A2.1 relative binding (ratio of binding of test peptide relative to standard peptide) for this entry: SMLSPFLPLV
Response: 0.97

Prompt: Look up and report measured A2.1 relative binding (ratio of binding of test peptide relative to standard peptide) for this entry: GLCAVFADV
Response: 0.030

Prompt: Look up and report measured A2.1 relative binding (ratio of binding of test peptide relative to standard peptide) for this entry: SLHCKPEEA
Response: 0.013

Prompt: Look up and report measured A2.1 relative binding (ratio of binding of test peptide relative to standard peptide) for this entry: GLWIRTPPV
Response: 0.36

Prompt: Look up and report measured A2.1 relative binding (ratio of binding of test peptide relative to standard peptide) for this entry: SLDSWWTSV
Response: 0.10

Prompt: Look up and report measured A2.1 relative binding (ratio of binding of test peptide relative to standard peptide) for this entry: LMLGTLEEV
Response: 0.13

Prompt: Look up and report measured A2.1 relative binding (ratio of binding of test peptide relative to standard peptide) for this entry: SILSPFLPLL
Response: 0.0025

Prompt: Look up and report measured A2.1 relative binding (ratio of binding of test peptide relative to standard peptide) for this entry: FLGLSPTVWV
Response: 0.030

Prompt: Look up and report measured A2.1 relative binding (ratio of binding of test peptide relative to standard peptide) for this entry: WLLRGTSFV
Response: 0.10

Prompt: Look up and report measured A2.1 relative binding (ratio of binding of test peptide relative to standard peptide) for this entry: GLSYDGLLG
Response: 0

Prompt: Look up and report measured A2.1 relative binding (ratio of binding of test peptide relative to standard peptide) for this entry: WMELSVMEV
Response: 0.041

Prompt: Look up and report measured A2.1 relative binding (ratio of binding of test peptide relative to standard peptide) for this entry: LMPFVQWFV
Response: 0.83

Prompt: Look up and report measured A2.1 relative binding (ratio of binding of test peptide relative to standard peptide) for this entry: WEELSVMEV
Response: 0

Prompt: Look up and report measured A2.1 relative binding (ratio of binding of test peptide relative to standard peptide) for this entry: GLSYDGLLV
Response: 0.0047

Prompt: Look up and report measured A2.1 relative binding (ratio of binding of test peptide relative to standard peptide) for this entry: ILGLLGFAV
Response: 0.060

Prompt: Look up and report measured A2.1 relative binding (ratio of binding of test peptide relative to standard peptide) for this entry: RMTGGVFLV
Response: 0.15

Prompt: Look up and report measured A2.1 relative binding (ratio of binding of test peptide relative to standard peptide) for this entry: YEFLWGPRA
Response: 0

Prompt: Look up and report measured A2.1 relative binding (ratio of binding of test peptide relative to standard peptide) for this entry: RLSWPKFAV
Response: 0.0072

Prompt: Look up and report measured A2.1 relative binding (ratio of binding of test peptide relative to standard peptide) for this entry: LLPFVQWFV
Response: 0.63

Prompt: Look up and report measured A2.1 relative binding (ratio of binding of test peptide relative to standard peptide) for this entry: YMLDLQPET
Response: 1.4

Prompt: Look up and report measured A2.1 relative binding (ratio of binding of test peptide relative to standard peptide) for this entry: SMHCKPEEV
Response: 0.018

Prompt: Look up and report measured A2.1 relative binding (ratio of binding of test peptide relative to standard peptide) for this entry: ALGLVCVQA
Response: 0.015

Prompt: Look up and report measured A2.1 relative binding (ratio of binding of test peptide relative to standard peptide) for this entry: LMLLDYQGMV
Response: 0.0087

Prompt: Look up and report measured A2.1 relative binding (ratio of binding of test peptide relative to standard peptide) for this entry: LLGDNQIMV
Response: 0.043

Prompt: Look up and report measured A2.1 relative binding (ratio of binding of test peptide relative to standard peptide) for this entry: WGLLGFAA
Response: 0.0009

Prompt: Look up and report measured A2.1 relative binding (ratio of binding of test peptide relative to standard peptide) for this entry: LVPFVQWFA
Response: 0.0031

Prompt: Look up and report measured A2.1 relative binding (ratio of binding of test peptide relative to standard peptide) for this entry: LMLQAGFFLV
Response: 0.63

Prompt: Look up and report measured A2.1 relative binding (ratio of binding of test peptide relative to standard peptide) for this entry: YLLDLQEPV
Response: 0.22
